Target: MAGI1_2, Q96QZ7
Sequence (Q96QZ7 456-580): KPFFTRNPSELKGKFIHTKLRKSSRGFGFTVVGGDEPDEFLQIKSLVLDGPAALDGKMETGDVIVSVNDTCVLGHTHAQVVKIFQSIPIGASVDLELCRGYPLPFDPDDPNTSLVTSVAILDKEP
Test: holdup assay
Set-up: key: below the threshold = too weak to quantify, mostly under pKd 3.1 to 4
Details: plain residues with an end cap or a label only (N-terminal biotin on a linker: ado-ado)
measuredMetric: pKd

PTPDLPQTRV [KLHDC7A, Q5VTJ3] :: below the threshold
TISFTQTSQF [SLC1A1, P43005] :: below the threshold
QKAPTKEFYA [SDC2, P34741] :: below the threshold

Values compiled from paper PMC9482650.
